Attribution: patent US4870175A

# Tested on: cyclic AMP/phosphodiesterase
# test summary: Inhibitory action of cyclic AMP/phosphodiesterase (crude enzyme fraction from sonicated rabbit platelets)
# Assay type: biochemical
# conditions used: 100 μg/ml; 40 min
Lab note: compare Inhibitory ratio with 90%, writing met if less and not met if equal or more.

Some solved entries appear below for comparison.
Criterion: Inhibitory ratio strictly below 90%. Is it met by CCOC(=O)CCCCOc1ccc2c(c1)NCC(=O)N2 [Compound 927] ?
met

Check if Inhibitory ratio falls below 90% for CCCc1nc2cc(OCCCC(=O)O)ccc2[nH]c1=O [Compound 957] .
not met

---
Consider CCCCc1nc2cc(OCCCC(=O)O)ccc2[nH]c1=O [Compound 958] . Does its Inhibitory ratio lie strictly below 90%?
not met

Item CCCCc1nc2cc(OCCCC(=O)OCC)ccc2[nH]c1=O [Compound 948] : Inhibitory ratio beneath 90%, strictly?
not met

Below 90% on Inhibitory ratio? Entry O=C1CNc2cc(OCCCCc3nnnn3C3CCCCC3)ccc2N1 [Compound 931]
met

Threshold test, Inhibitory ratio < 90%: CCN(C(=O)CCCCOc1ccc2[nH]c(=O)cnc2c1)C1CCCCC1 [Compound 921]
not met

Identify whether the compound CCOC(=O)CCCOc1ccc2[nH]c(=O)cnc2c1 [Compound 914] records Inhibitory ratio below 90%.
met

Does the reported Inhibitory ratio of CCOC(=O)CCCOc1ccc2c(c1)NCC(=O)N2 [Compound 925] stay below 90%?
met

Inhibitory ratio under 90%? Item: CN(C(=O)CCCCOc1ccc2[nH]c(=O)cnc2c1)C1CCCCC1 [Compound 920]
met

I wonder whether O=C(CCCOc1ccc2[nH]c(=O)cnc2c1)N(Cc1ccccc1)C1CCCCC1 [Compound 916] has Inhibitory ratio below 90%. Can you tell?
met

Is it true that Inhibitory ratio reported for CCCc1nc2cc(OCCCC(=O)N(CCO)C3CCCCC3)ccc2[nH]c1=O [Compound 975] is less than 90%?
not met

State whether 90% exceeds Inhibitory ratio recorded for Cc1nc2cc(OCCCC(=O)N(CCO)C3CCCCC3)ccc2[nH]c1=O [Compound 966] .
not met

Lab log: compare recorded Inhibitory ratio with 90%; is it strictly lower for CCN(CC)C(=O)CCCOc1ccc2[nH]c(=O)c(C)nc2c1 [Compound 967] ?
not met

Dear reviewer, please state whether COc1ccccc1N1CCN(C(=O)CCCCOc2ccc3[nH]c(=O)cnc3c2)CC1 [Compound 924] has Inhibitory ratio strictly beneath 90%.
met

Regarding CCN(C(=O)CCCOc1ccc2[nH]c(=O)cnc2c1)C1CCCCC1 [Compound 915] , kindly confirm whether its Inhibitory ratio is beneath 90%.
met

Inhibitory ratio strictly < 90% for this compound? CCc1nc2cc(OCCCC(=O)O)ccc2[nH]c1=O [Compound 956]
not met

# check: Inhibitory ratio < 90% for Cc1nc2cc(OCCCC(=O)O)ccc2[nH]c1=O [Compound 955]
not met

###

# Test system: cyclic AMP/phosphodiesterase
# test summary: Inhibitory action of cyclic AMP/phosphodiesterase (crude enzyme fraction from sonicated rabbit platelets)
# Assay type: biochemical
# conditions used: 100 μg/ml; 40 min
Recorded Inhibitory ratio, one value per entry.
Number in %, nothing else.

Reference set (5 entries):
// returns reported Inhibitory ratio for input CN(C(=O)CCCOc1ccc2[nH]c(=O)cnc2c1)C1CCCCC1
91.0

# get_value(readout='Inhibitory ratio', item= O=C(CCCOc1ccc2[nH]c(=O)c(-c3ccccc3)nc2c1)N(CCO)C1CCCCC1 )
90.2

Entry CCCCCCCCCc1nc2cc(OCCCC(=O)O)ccc2[nH]c1=O : reported Inhibitory ratio = ?
87.4

// query Inhibitory ratio value for entry CCCCCCc1nc2cc(OCCCC(=O)O)ccc2[nH]c1=O
91.0

Which value of Inhibitory ratio has been reported for CCOC(=O)CCCCOc1ccc2[nH]c(=O)cnc2c1 in the records?
92.4

New cases:
Item under review: O=C(CCCOc1ccc2[nH]c(=O)cnc2c1)N(CCO)C1CCCCC1 . Reported Inhibitory ratio?
87.7

Could you tell me which Inhibitory ratio is on file for CCOC(=O)CCCOc1ccc2[nH]c(=O)c(C)nc2c1 ?
88.9

Can you share its Inhibitory ratio? I mean this compound: O=C(O)CCCOc1ccc2[nH]c(=O)c(-c3ccccc3)nc2c1
90.5

So what's the measured Inhibitory ratio for this one? O=C(O)CCCOc1ccc2[nH]c(=O)cnc2c1
88.2

Dear colleague, I am looking for the recorded Inhibitory ratio of the following compound: COc1ccccc1N1CCN(C(=O)CCCOc2ccc3[nH]c(=O)cnc3c2)CC1
87.9

Reported Inhibitory ratio, compound O=C(CCCCOc1ccc2[nH]c(=O)cnc2c1)N(CCO)C1CCCCC1 : ____
92.4

Could you share which Inhibitory ratio value was measured for CN(C(=O)CCCOc1ccc2c(c1)NCC(=O)N2)C1CCCCC1 ?
88.5

Requested field: Inhibitory ratio. Item: O=C(CCCCOc1ccc2[nH]c(=O)cnc2c1)N(Cc1ccccc1)C1CCCCC1
91.1
